System: S. aureus 43300 (MRSA)
method-description: Antibiotic repotentiation (antibiotic MIC with/without compound)
Assay type: cell-based, Staphylococcus aureus
experimental-parameters: +31.25 μM compound; S. aureus 43300 (MRSA)
quantity-kind: Oxacillin MIC (µg/mL)

c1cnc2c(c1)ccc1cccnc12 : 8
Cc1ccc2ccc3ccc(C)nc3c2n1 : 32
Clc1cc2cccnc2c2ncccc12 : 4
Cc1cc2cccnc2c2ncccc12 : 2

* * *

System: S. aureus USA300 biofilm
method-description: Biofilm inhibition, crystal violet assay
Format: cell-based
experimental-parameters: Staphylococcus aureus, S. aureus USA300 (MRSA), 30 h
quantity-kind: IC50 (µM)

CCOC(=O)N1CCC(=C2c3ccc(Cl)cc3CCc3cccnc32)CC1 [Loratadine] : 32.8

* * *

Tested on: S. aureus NR-49120 biofilm
method-description: Biofilm inhibition, crystal violet assay
Assay type: cell-based
experimental-parameters: Staphylococcus aureus, NR49120BIOFILM, S. aureus NR-49120 (methicillin and vancomycin resistant), 30 h
quantity-kind: IC50

CCOC(=O)N1CCC(=C2c3ccc(Cl)cc3CCc3cccnc32)CC1 [Loratadine] : 59.9 µM

* * *

System: S. aureus 43300 (MRSA)
method-description: Antibiotic repotentiation (antibiotic MIC with/without compound)
Type: cell-based, Staphylococcus aureus
experimental-parameters: oxacillin MIC, +31.25 μM compound; S. aureus 43300 (MRSA)
Listed here: items and their measured Fold Reduction.
quantity-kind: Fold Reduction

c1cnc2c(c1)ccc1cccnc12 [Compound V-4] : 4
Cc1ccc2ccc3ccc(C)nc3c2n1 [Compound V-9] : 1
Clc1cc2cccnc2c2ncccc12 [Compound V-6] : 8
Cc1cc2cccnc2c2ncccc12 [Compound V-8] : 16

* * *

Tested on: S. aureus 43300 (MRSA)
method-description: Antibiotic repotentiation (antibiotic MIC with/without compound)
Type: cell-based, Staphylococcus aureus
experimental-parameters: oxacillin MIC, +75 μM compound; S. aureus 43300 (MRSA)
Listed here: items and their measured Fold Reduction.
quantity-kind: Fold Reduction

Brc1cc2ccccc2c2ccccc12 : 4
Cc1cc2c(s1)Nc1ccccc1N=C2N1CCN(C)CC1 [Olanzapine, reference compound] : 1
CN1CCN(C2=Nc3ccccc3Oc3ccc(Cl)cc32)CC1 [Loxapine, reference compound] : 1
Clc1ccnc2c1ccc1c(Cl)ccnc12 : 1

* * *

Test system: S. aureus 43300 (MRSA)
method-description: Antibiotic repotentiation (antibiotic MIC with/without compound)
Type: cell-based, Staphylococcus aureus
experimental-parameters: +Loratadine 50 μM; MRSA 43300
quantity-kind: MIC of antibiotic (µg/mL)

Cc1onc(-c2ccccc2)c1C(=O)N[C@@H]1C(=O)N2[C@@H]1SC(C)(C)[C@@H]2C(=O)O [Oxacillin] : 1
Cc1nnc(SCC2=C(C(=O)O)N3C(=O)[C@@H](NC(=O)Cn4cnnn4)[C@H]3SC2)s1 [Cefazolin] : 1
CN[C@H](CC(C)C)C(=O)N[C@H]1C(=O)N[C@@H](CC(N)=O)C(=O)N[C@H]2C(=O)N[C@H]3C(=O)N[C@H](C(=O)N[C@H](C(=O)O)c4cc(O)cc(O)c4-c4cc3ccc4O)[C@H](O)c3ccc(c(Cl)c3)Oc3cc2cc(c3O[C@@H]2O[C@H](CO)[C@@H](O)[C@H](O)[C@H]2O[C@H]2C[C@](C)(N)[C@H](O)[C@H](C)O2)Oc2ccc(cc2Cl)[C@H]1O [Vancomycin] : 1

* * *

Test system: S. aureus USA300 (MRSA)
method-description: Antibiotic repotentiation (antibiotic MIC with/without compound)
Assay type: cell-based, Staphylococcus aureus
experimental-parameters: +50 μM compound; S. aureus USA300 (MRSA)
Experimental: The overnight culture was diluted into fresh CAMHB to a concentration of 5×10^5 CFU/ml. […] On the same plate, a standard microdilution MIC with the tested antibiotics and no added compound was also performed to compare the antibiotic MIC in the presence and absence of compound. […] Fold reductions were calculated by dividing the MIC of the antibiotic without compound by the MIC of the antibiotic in the presence of compound. The compounds were then analyzed for antibiotic repotentiation activity. […]
Listed here: items and their measured Oxacillin MIC.
quantity-kind: Oxacillin MIC (µg/mL)

CCOC(=O)N1CCC(=C2c3ccc(Cl)cc3CCc3cccnc32)CC1 [Loratadine] : 0.5
Brc1cccc2[nH]c3ccccc3c12 [IV-4] : 2
Brc1ccc2[nH]c3ccccc3c2c1 [IV-3] : 64
Brc1ccc2[nH]c3ccc(Br)cc3c2c1 [IV-5] : 32
c1ccc2c(c1)[nH]c1ccccc12 [IV-1] : 64

* * *

Test system: S. aureus USA300 (MRSA)
method-description: Antibiotic repotentiation (antibiotic MIC with/without compound)
Assay type: cell-based, Staphylococcus aureus
experimental-parameters: +Loratadine 50 μM; MRSA USA300
Procedure: The overnight culture was diluted into fresh CAMHB to a concentration of 5×10^5 CFU/ml. […] On the same plate, a standard microdilution MIC with the tested antibiotics and no added compound was also performed to compare the antibiotic MIC in the presence and absence of compound. […] Fold reductions were calculated by dividing the MIC of the antibiotic without compound by the MIC of the antibiotic in the presence of compound. The compounds were then analyzed for antibiotic repotentiation activity. […]
Listed here: items and their measured MIC of antibiotic.
quantity-kind: MIC of antibiotic (µg/mL)

Cc1onc(-c2ccccc2)c1C(=O)N[C@@H]1C(=O)N2[C@@H]1SC(C)(C)[C@@H]2C(=O)O [Oxacillin] : 0.5
Cc1nnc(SCC2=C(C(=O)O)N3C(=O)[C@@H](NC(=O)Cn4cnnn4)[C@H]3SC2)s1 [Cefazolin] : 1
CN[C@H](CC(C)C)C(=O)N[C@H]1C(=O)N[C@@H](CC(N)=O)C(=O)N[C@H]2C(=O)N[C@H]3C(=O)N[C@H](C(=O)N[C@H](C(=O)O)c4cc(O)cc(O)c4-c4cc3ccc4O)[C@H](O)c3ccc(c(Cl)c3)Oc3cc2cc(c3O[C@@H]2O[C@H](CO)[C@@H](O)[C@H](O)[C@H]2O[C@H]2C[C@](C)(N)[C@H](O)[C@H](C)O2)Oc2ccc(cc2Cl)[C@H]1O [Vancomycin] : 1
CC1(C)S[C@@H]2[C@H](NC(=O)[C@H](N)c3ccccc3)C(=O)N2[C@H]1C(=O)O [Ampicillin] : 0.5

* * *

System: S. aureus USA100 biofilm
method-description: Biofilm inhibition, crystal violet assay
Format: cell-based
experimental-parameters: Staphylococcus aureus, S. aureus USA100 (MRSA), 30 h
quantity-kind: IC50 (µM)

CCOC(=O)N1CCC(=C2c3ccc(Cl)cc3CCc3cccnc32)CC1 : 22.2
